Target: TIGIT/CD155 complex (Homo sapiens)
Construct: purchased 63ADK000CB07PEG
Sequence (Q495A1 22-141 limits assumed, one chain of several): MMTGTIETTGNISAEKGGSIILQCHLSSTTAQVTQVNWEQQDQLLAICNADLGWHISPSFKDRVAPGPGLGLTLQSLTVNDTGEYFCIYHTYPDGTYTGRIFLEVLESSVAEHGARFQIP
Assay: HTRF TIGIT/CD155 binding assay (blocking of TIGIT/CD155 complex)
Conditions: derivatives with side chains R1, R2, R3 modified
assay_endpoint: TIGIT binding effects compared with compound 1

[[record]]
compound = "COc1ccc(C(NC(=O)[C@H](Cc2ccsc2)NC(=O)/C=C/c2ccc3cc(OC)ccc3c2)c2ccc(OCC(=O)O)cc2)c(OC)c1 (stereo partly shown) [Compound a7]"
target_under_test = "TIGIT/CD155 complex (Homo sapiens)"
result = "improved"

[[record]]
compound = "COc1ccc(C(NC(=O)[C@H](Cc2ccsc2)NC(=O)c2ccc3cc(OC)ccc3c2)c2ccc(OCC(=O)O)cc2)c(OC)c1 (stereo partly shown) [Compound a6]"
target_under_test = "TIGIT/CD155 complex (Homo sapiens)"
result = "improved"

[[record]]
compound = "COc1ccc(C(NC(=O)[C@H](Cc2ccccc2)NC(=O)[C@@H](C)c2ccc3cc(OC)ccc3c2)c2ccc(OCC(=O)O)cc2)c(OC)c1 (stereo partly shown) [Compound a17]"
target_under_test = "TIGIT/CD155 complex (Homo sapiens)"
result = "improved"

[[record]]
compound = "COc1ccc(C(NC(=O)[C@H](Cc2ccc(F)cc2)NC(=O)[C@@H](C)c2ccc3cc(OC)ccc3c2)c2ccc(OCC(=O)O)cc2)c(OC)c1 (stereo partly shown) [Compound a18]"
target_under_test = "TIGIT/CD155 complex (Homo sapiens)"
result = "improved"

